From: the supplement of paper PMC6555819

# Test system: LXRb:RXRa (NR concentration 270 nM, RXRa partner concentration 90 nM)
# assayMethodText: PBM binding z-score (relative to random genomic background probes); higher = stronger binding; sequences stand for … in GC…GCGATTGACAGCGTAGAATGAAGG
Classify by measured PBM binding z-score: True if it is equal to or exceeds 0.08, False if it is smaller.

Is the recorded value of PBM binding z-score equal to or greater than 0.08 for this sequence? TTTAGTTGGTCAAAGGTCACACACTCGAAATGCG
True

What do we get for CCGAGTACGTTACGAGGGGGCATTCAGTGCGAAT ?
True

What do we get for CGAACTAGGACATCCAGGACAGTGAATACATTGA ?
False

What do we get for CCGAGTAGGCTACGAGGGGGCATTCAGTGCGAAT ?
True

----------
# Test system: PPARg DBDmut IVT, anti-PPARg (DBD mutation: PPARg1 K132A/R137A, NR concentration 270 nM)
# assayMethodText: PBM binding z-score (relative to random genomic background probes); higher = stronger binding; sequences stand for … in GC…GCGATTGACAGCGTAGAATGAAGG
Categories are assigned from the measured PBM binding z-score using these intervals: low end: < 1; middle: ≥ 1 and < 4; high end: ≥ 4

[[record]]
entrysequence = "CTTAGTTGGTCAGGAGGTCACACACCGGATATGA"
measuredon = "PPARg DBDmut IVT, anti-PPARg (DBD mutation: PPARg1 K132A/R137A, NR concentration 270 nM)"
discretelabel = "middle"

[[record]]
entrysequence = "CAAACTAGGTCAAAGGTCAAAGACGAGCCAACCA"
measuredon = "PPARg DBDmut IVT, anti-PPARg (DBD mutation: PPARg1 K132A/R137A, NR concentration 270 nM)"
discretelabel = "high end"

[[record]]
entrysequence = "CGAACTAGGTCAATGGACAGTGAAAGGCGACGTA"
measuredon = "PPARg DBDmut IVT, anti-PPARg (DBD mutation: PPARg1 K132A/R137A, NR concentration 270 nM)"
discretelabel = "high end"

[[record]]
entrysequence = "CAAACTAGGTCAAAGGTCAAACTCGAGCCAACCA"
measuredon = "PPARg DBDmut IVT, anti-PPARg (DBD mutation: PPARg1 K132A/R137A, NR concentration 270 nM)"
discretelabel = "high end"

[[record]]
entrysequence = "CGAACTAGGTCAAAGGACAGTGGAAGGCGACGTA"
measuredon = "PPARg DBDmut IVT, anti-PPARg (DBD mutation: PPARg1 K132A/R137A, NR concentration 270 nM)"
discretelabel = "middle"


State the class of the sequence shown: CGAACTAGTTCAAAGGACAGTGAAAGGCGACGTA
low end

What do we get for ATCGAAAGGTCGAAGGTGAGTCTACCCACCCGAA ?
low end

----------
# Test system: RXRa homodimer (NR concentration 180 nM)
# assayMethodText: PBM binding z-score (relative to random genomic background probes); higher = stronger binding; sequences stand for … in GC…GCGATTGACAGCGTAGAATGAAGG
measure: PBM binding z-score
Please reply with the number alone, leaving off any unit.

[[record]]
entrysequence = "TCGAGTAGGTTACCGGGGCATTCAGGGATGAAGA"
measvalue = 0.997


PBM binding z-score lookup needed for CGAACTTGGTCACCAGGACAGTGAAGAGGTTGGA , thanks.
0.727

What do we get for CCGAGTAGGTTAAGAGGGGGCATTCAGTGCGAAT ?
1.76

What do we get for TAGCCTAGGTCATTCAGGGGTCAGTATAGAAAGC ?
5.8

What do we get for CGAGCTAGGTCAAAGGACAGTGAAAGGCGACGTA ?
2.99

What do we get for TCTAGTTGGTCACGGAGGTCACACGCGACGGGTA ?
4.97

What do we get for CCTCGGAGGACAACAGGATGTCAGAGCTGCCAGA ?
-0.144

What do we get for CCGAGTAGGTTACGAGGGGGTATTCAGTGCGAAT ?
1.17

What do we get for GCTAGTTGGTCAGTAAATGGTCACACACCGGTCG ?
0.551
